I'd be grateful if you could share measured MIC for these entries.
# System: Bacillus cereus
# assay_overview: Antibacterial activity against Bacillus cereus CGMCC 1.1846 after 24 hrs by micro-broth dilution method
# Format: functional
# settings: CGMCC 1.1846, 24 h
One number for each entry, in mg/L.

As a guide, the following entries are already answered.
1. CC(C)[C@@H]1NC(=O)[C@@H]2C[C@@]3(O)c4ccc(Cl)cc4N[C@H]3N2C(=O)[C@H]2CCCNN2C(=O)[C@@H](C)N(C)C(=O)[C@H]2CCCNN2C(=O)[C@@H]2CCCNN2C1=O ... 12.5
2. CC1(C)S[C@@H]2[C@H](NC(=O)[C@H](N)c3ccccc3)C(=O)N2[C@H]1C(=O)[O-].[Na+] [AMPICILLIN SODIUM] ... 6.25
3. COC1C=NN2C(=O)[C@H]3CCCNN3C(=O)[C@@H](C(C)C)NC(=O)[C@@H]3C[C@@]4(O)c5ccc(Cl)cc5N[C@H]4N3C(=O)[C@H]3CCCNN3C(=O)[C@H](C)N(C)C(=O)C2C1 (stereo not given in full) ... 25

Okay, now this molecule:
Fill blank: measured MIC of the molecule COC1=CC2C(=O)N(C)[C@@H](C)C(=O)N3NCCC[C@@H]3C(=O)N3[C@@H](C[C@@]4(O)c5ccc(Cl)cc5N[C@@H]34)C(=O)N[C@H](C(C)C)C(=O)N3NCCC[C@@H]3C(=O)N2N=C1 (stereo not given in full) is ____.
3.13
